Provenance of the data: patent US11180487B2

measurement kind: melting point (°C)
Answers are plain numbers, in °C.

Below, 8 compounds whose answers are already recorded.
compound	melting point (°C)
CC(C)Oc1cc(P(C)(C)=O)ccc1Nc1nccc(-c2cc(C#N)c3c(c2)[C@@](C)(CO)CN3)n1	263
Cc1ccc(CN2CC(F)C2)cc1Nc1nccc(-c2cc(C#N)c3c(c2)[C@@](C)(CO)CN3)n1	140
Cc1ccc(C(=O)NCCN2CCOCC2)cc1Nc1nccc(-c2cc(C#N)c3c(c2)[C@@](C)(CO)CN3)n1	140
Cc1c(CO)cc(C#N)cc1Nc1nccc(-c2cc(C#N)c3c(c2)[C@@](C)(CO)CN3)n1	188
Cc1ccc(CN2CCC(O)CC2)c(Nc2nccc(-c3cc(C#N)c4c(c3)[C@@](C)(CO)CN4)n2)c1	181
Cc1cc(C(=O)NCC2COC2)c(F)cc1Nc1nccc(-c2cc(C#N)c3c(c2)[C@@](C)(CO)CN3)n1	240
Cc1cc(C2CCCN(C)C2)c(C#N)cc1Nc1nccc(-c2cc(C#N)c3c(c2)[C@@](C)(CO)CN3)n1 (single isomer, unassigned) [Compound 178]	230
Cc1ccc(C#N)cc1Nc1nccc(-c2cc(C#N)c3c(c2)[C@@](C)(COC(=O)CC(=O)O)CN3)n1 [Compound 142a]	138

Query block: Form field: reported melting point of CC1(CO)CNc2c(C#N)cc(-c3ccnc(Nc4cc(C(F)(F)F)ccc4OCCO)n3)cc21 (centres unmarked)
Result block: 190

----------
- study system: recombinant human NF-kappaB-inducing kinase (NIK/MAP3K14) (Homo sapiens, UniProt Q99558)
- Sequence (Q99558 whole entry): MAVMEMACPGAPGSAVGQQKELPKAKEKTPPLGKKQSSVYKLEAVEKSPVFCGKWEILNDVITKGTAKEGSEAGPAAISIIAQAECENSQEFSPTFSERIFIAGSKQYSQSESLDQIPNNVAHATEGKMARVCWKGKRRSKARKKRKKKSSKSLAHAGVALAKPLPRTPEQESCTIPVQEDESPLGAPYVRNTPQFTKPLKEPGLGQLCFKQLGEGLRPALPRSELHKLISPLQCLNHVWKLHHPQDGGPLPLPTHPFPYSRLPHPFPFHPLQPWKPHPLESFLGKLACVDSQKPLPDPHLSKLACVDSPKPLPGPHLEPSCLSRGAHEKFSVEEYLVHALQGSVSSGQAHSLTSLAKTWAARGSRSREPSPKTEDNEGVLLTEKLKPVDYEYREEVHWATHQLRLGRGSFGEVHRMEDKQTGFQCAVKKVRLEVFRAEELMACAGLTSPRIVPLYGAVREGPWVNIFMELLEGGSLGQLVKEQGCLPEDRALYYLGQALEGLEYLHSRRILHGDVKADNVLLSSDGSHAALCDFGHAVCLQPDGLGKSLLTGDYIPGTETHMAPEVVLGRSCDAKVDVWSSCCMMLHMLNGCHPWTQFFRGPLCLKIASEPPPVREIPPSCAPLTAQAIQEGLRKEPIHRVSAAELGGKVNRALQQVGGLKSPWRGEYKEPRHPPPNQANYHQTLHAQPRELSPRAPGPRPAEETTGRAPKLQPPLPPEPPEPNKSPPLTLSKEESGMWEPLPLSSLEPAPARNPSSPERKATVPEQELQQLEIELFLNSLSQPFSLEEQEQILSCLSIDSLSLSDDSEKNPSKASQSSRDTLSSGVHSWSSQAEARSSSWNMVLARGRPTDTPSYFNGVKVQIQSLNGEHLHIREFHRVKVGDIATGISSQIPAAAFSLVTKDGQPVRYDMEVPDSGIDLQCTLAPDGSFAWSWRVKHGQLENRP
- method: Inhibition of auto-phosphorylation of recombinant human NIK/MAP3K14 activity (AlphaScreen), Biological Assay A
- Format: biochemical
- protocol conditions: averaged values over all measurements on all batches
measurement kind: log10(IC50) (log10 of the value in nM)
Plainly stated, the numbers are log10 of IC50 given in nM.

Below, 5 compounds whose answers are already recorded.
compound	log10(IC50)
CN1CCCC(Oc2ccc(Cl)cc2Nc2nccc(-c3cc(C#N)c4c(c3)C(C)(CO)CN4)n2)C1 (mixture of isomers) [Compound 39]	0.87
COc1cc(N2CCC(O)CC2)c(Cl)cc1Nc1nccc(-c2cc(C#N)c3c(c2)C(C)(C)CN3)n1 [Compound 105]	1.45
COc1cc(P(C)(C)=O)ccc1Nc1nccc(-c2cc(C#N)c3c(c2)[C@@](C)(CO)CN3)n1 [Compound 64]	0.26
COc1cc(C(=O)NCC(C)O)c(Cl)cc1Nc1nccc(-c2cc(C#N)c3c(c2)C(C)(C)CN3)n1 (stereo not shown) [Compound 112]	0.63
Cc1c(CO)cc(C#N)cc1Nc1nccc(-c2cc(C#N)c3c(c2)[C@@](C)(CO)CN3)n1 [Compound 193]	0.20

Please go through the list and note log10(IC50) for each compound.
1. Cc1cc(F)c(C(=O)NC2CCN(C)C2)cc1Nc1nccc(-c2cc(C#N)c3c(c2)[C@@](C)(CO)CN3)n1 (single isomer, unassigned) [Compound 166]
2. COc1cc(C(=O)N2CC3CC(C2)C3O)c(Cl)cc1Nc1nccc(-c2cc(C#N)c3c(c2)C(C)(C)CN3)n1 (stereo not shown) [Compound 120]

Result block:
1. 0.95
2. 1.19
